# Tested on: DPX2 cells
# details: human
The entries below are paired with their reported DPX2 Viability @ 25 μM.
Lab book: enter the figure in %, no units written.

CO[C@H]1/C=C/O[C@@]2(C)Oc3c(C)c(O)c4c(=O)c(c5oc6cc(N7CCCC(C(=O)Nc8ccc(Cl)cc8)C7)cc(C)c6nc-5c4c3C2=O)NC(=O)/C(C)=C\C=C\[C@H](C)[C@H](O)[C@@H](C)[C@@H](O)[C@@H](C)[C@H](OC(C)=O)[C@@H]1C (stereo partly shown)	109
CO[C@H]1/C=C/O[C@@]2(C)Oc3c(C)c(O)c4c(=O)c(c5oc6cc(N7CCN(CCn8ccnc8)CC7)cc(C)c6nc-5c4c3C2=O)NC(=O)/C(C)=C\C=C\[C@H](C)[C@H](O)[C@@H](C)[C@@H](O)[C@@H](C)[C@H](OC(C)=O)[C@@H]1C [Compound 26c]	96
CO[C@H]1/C=C/O[C@@]2(C)Oc3c(C)c(O)c4c(=O)c(c5oc6cc(N7CCN(C(=O)c8ccccc8)CC7)cc(OCc7ccc(CN8CCOCC8)cc7)c6nc-5c4c3C2=O)NC(=O)/C(C)=C\C=C\[C@H](C)[C@H](O)[C@@H](C)[C@@H](O)[C@@H](C)[C@H](OC(C)=O)[C@@H]1C [Compound 17m]	78

For the next question, use this compound.
State its DPX2 Viability @ 25 μM: `CO[C@H]1/C=C/O[C@@]2(C)Oc3c(C)c(O)c4c(=O)c(c5oc6cc(C=Nc7ccc(N8CCOCC8)cc7)cc(N7CCN(C)CC7)c6nc-5c4c3C2=O)NC(=O)/C(C)=C\C=C\[C@H](C)[C@H](O)[C@@H](C)[C@@H](O)[C@@H](C)[C@H](OC(C)=O)[C@@H]1C`
100
